- system-under-test: Serine/threonine-protein phosphatase PP1-alpha catalytic subunit (Homo sapiens)
- procedure-details: dose-dependent PP1alpha phosphatase inhibition – biochemical, fluorescence, OMFP substrate, set 1, dose response (AID 652222)
- conditions: purified PP1alpha, OMFP dephosphorylation
assay-metric: pIC50
Answer as the number alone; pIC50 is minus log10 of concentration in mol/L.

Inquiry: Given the entry Oc1c(C(c2ccccn2)N2CCN(c3ccccc3F)CC2)cc(Cl)c2cccnc12 (centres undefined) , report its measured pIC50.
Reply text: 5.62

Inquiry: Given the entry CN1CCN(C(c2ccc(C(F)(F)F)cn2)c2ccc3cccnc3c2O)CC1 (centres undefined) , report its measured pIC50.
Reply text: 6.08

Inquiry: Given the entry CC1CCN(C(c2ccccn2)c2cc(Cl)c3cccnc3c2O)CC1 (centres undefined) , report its measured pIC50.
Reply text: 5.84

Inquiry: Given the entry Oc1c(C(NC2CCCCC2)c2ccccn2)ccc2cccnc12 (centres undefined) , report its measured pIC50.
Reply text: 5.87

Inquiry: Given the entry COc1ccnc(C(c2ccc3cccnc3c2O)N2CCN(C)CC2)c1 (centres undefined) , report its measured pIC50.
Reply text: 5.90

Inquiry: Given the entry CC(C)(C)OC(=O)N1CCN(C(c2ccccn2)c2cc(Cl)c3cccnc3c2O)CC1 (centres undefined) , report its measured pIC50.
Reply text: 5.86

Inquiry: Given the entry Cc1cccc(C(c2ccc3cccnc3c2O)N2CCN(C)CC2)n1 (centres undefined) , report its measured pIC50.
Reply text: 5.60

Inquiry: Given the entry Cc1ccc2ccc(C(c3ccccn3)N3CCN(C)CC3)c(O)c2n1 (centres undefined) , report its measured pIC50.
Reply text: 5.84

Inquiry: Given the entry Cc1cccnc1C(c1ccc2cccnc2c1O)N1CCN(C)CC1 (centres undefined) , report its measured pIC50.
Reply text: 5.83

Inquiry: Given the entry CN1CCC(NC(c2ccccn2)c2ccc3cccnc3c2O)CC1 (centres undefined) , report its measured pIC50.
Reply text: 5.60

Inquiry: Given the entry Cc1ccc(C(c2ccc3cccnc3c2O)N2CCN(C)CC2)nc1 (centres undefined) , report its measured pIC50.
Reply text: 5.87

Inquiry: Given the entry COc1cccc(C(c2ccc3cccnc3c2O)N2CCN(C)CC2)n1 (centres undefined) , report its measured pIC50.
Reply text: 5.05

Inquiry: Given the entry CN1CCN(C(c2ccc3cccnc3c2O)c2ncccc2C(F)(F)F)CC1 (centres undefined) , report its measured pIC50.
Reply text: 5.95

Inquiry: Given the entry Oc1c(C(c2ccccn2)N2CCC(Cc3ccccc3)CC2)cc(Cl)c2cccnc12 (centres undefined) , report its measured pIC50.
Reply text: 5.91
